Below: a set of entries, each annotated with reported log2 fold change of degron read counts.
Target: T1, CRBN, Q96SW2;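 further: pooled lentiviral library of zinc finger degron-EGFP fusions in mCherry-positive Jurkat cells, FACS-sorted after compound exposure, with degron abundance counted by next-generation sequencing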
T1 chain: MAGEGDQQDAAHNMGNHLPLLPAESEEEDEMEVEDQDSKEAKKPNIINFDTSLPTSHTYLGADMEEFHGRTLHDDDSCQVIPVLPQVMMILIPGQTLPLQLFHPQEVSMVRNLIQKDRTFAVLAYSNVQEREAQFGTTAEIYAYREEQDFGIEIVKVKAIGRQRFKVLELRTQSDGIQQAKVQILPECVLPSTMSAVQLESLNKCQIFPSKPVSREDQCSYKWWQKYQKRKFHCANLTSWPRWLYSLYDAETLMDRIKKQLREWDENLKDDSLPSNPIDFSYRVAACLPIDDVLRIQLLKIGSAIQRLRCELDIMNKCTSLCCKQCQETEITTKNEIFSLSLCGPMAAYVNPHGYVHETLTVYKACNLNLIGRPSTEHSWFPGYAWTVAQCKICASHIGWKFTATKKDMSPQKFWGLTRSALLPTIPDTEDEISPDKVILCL
Assay: log2 fold change of degron read counts, EGFP-low vs EGFP+ sorted cells (limma voom), compound-induced degradation; higher = more compound-induced degradation of the degron-EGFP fusion; degrons are variants of IKZF1/3 zinc finger 2; compound dose not given here
Conditions: Jurkat; 18 h; compound: compound 22 (5-morpholino-thalidomide)
Whole data set: some 8,300 sequences, median “log2 fold change of degron read counts, EGFP-low vs EGFP+ sorted cells (limma voom), compound-induced degradation” near -1.1, cut for the highest 2% near 3.2. The full list was thinned out, with the highest values kept by preference.
Form rule: numeric answer, no unit written next to it.

Some solved cases for reference:
> print(dat)
                             entry.sequence  observed.measurement
1  FRCDICGAAFTQKGNLLRHIKL [46F_47R_49D_50I_52G_53A_54A_55F_67L_, Q9UKT9]                  1.47
2  LGCPICGFQCTQKGNLLRHIKL [46L_47G_49P_50I_52G_53F_54Q_55C_67L_, Q9UKT9]                  2.31
3  FWCDICGAAFTQKGNLLRHIKL [46F_47W_49D_50I_52G_53A_54A_55F_67L_, Q9UKT9]                  3.67
4  FACDICGAAFTQKGNLLRHIKL [46F_47A_49D_50I_52G_53A_54A_55F_67L_, Q9UKT9]                  2.04
5  LMCPICGFCCTQKGNLLRHIKL [46L_47M_49P_50I_52G_53F_54C_55C_67L_, Q9UKT9]                  1.34
6  FHCEICGHSFTQKGNLLRHIKL [46F_47H_49E_50I_52G_53H_54S_55F_67L_, Q9UKT9]                 -3.88
7  LECPICGFQCTQKGNLLRHIKL [46L_47E_49P_50I_52G_53F_54Q_55C_67L_, Q9UKT9]                -0.246
8  FMCDICGAAFTQKGNLLRHIKL [46F_47M_49D_50I_52G_53A_54A_55F_67L_, Q9UKT9]                  1.45

QUERY: Value lookup for log2 fold change of degron read counts; key = LHCPICGFCCTQKGNLLRHIKL [46L_47H_49P_50I_52G_53F_54C_55C_67L_, Q9UKT9]
RESULT: 2.71

QUERY: Value lookup for log2 fold change of degron read counts; key = FWCNQCGAKFTQKGNLLRHIKL [46F_47W_49N_50Q_52G_53A_54K_55F_67L_, Q9UKT9]
RESULT: 0.432

QUERY: Value lookup for log2 fold change of degron read counts; key = LSCPICGFQCTQKGNLLRHIKL [46L_47S_49P_50I_52G_53F_54Q_55C_67L_, Q9UKT9]
RESULT: 2.18
